This collection of values is drawn from patent US10280179B2.

The following compounds are shown together with reported CC50 values.
assay: Cellular toxicity, same assay as Example B.4 without TAM (Example B.5); type: cell-based; conditions: mouse; Pfa1 cells without TAM; read-out: TC50 (the source's name)

Worked cases, answers included:
CC1CC2(CCN1)Nc1ccccc1N=C2NCc1ccccc1 (stereo not shown)
10 to 20 µM
Clc1cccc(CCNC2=Nc3ccccc3NC23CCCCC3)c1
2 to 5 µM
NC1CCC2(CC1)Nc1ccccc1N=C2NCc1ccccc1 (stereo not shown)
2 to 5 µM

Record summary for c1ccc(CCNC2=Nc3ccccc3NC23CCNCC3)cc1 : reported CC50 = 10 to 20 µM
